# Test system: OVCAR-8 ovarian
# assayExplanation: NCI-60 one-dose screen, 48 h
# conditionInfo: 10 µM unless noted
# Method: Growth inhibition of the OVCAR-8 human tumor cell line is measured as a screen for anti-cancer activity. Cells are grown in 96 well plates and exposed to the test compound for 48 hours. Compounds are tested at a single concentration, which is 10^-5 M for most compounds. The reported endpoint is percent growth (GI% or GIPRCNT), where numbers from 0 - 100% represent growth inhibition, and numbers from -100% - 0 represent cell death. For example, a value of 40 represents 60% growth inhibition. […]
The panel holds about 83,000 compounds, 20% with a hit somewhere; the sample as a whole holds those more often. Active and inactive are the calls of the source. Rule for the calls: active = growth percent below 10; inactive = the rest.
One label from this list, please: active, inactive

C#CCC#CCN1CCC[C@H]1C(=O)NCC(=O)OC :: inactive
CCCCNNC(=O)c1ccc(-c2cccc(F)c2F)cc1 :: inactive
CNC(=O)c1c(NC(=O)c2ccccc2C(F)(F)F)sc2c1CCC(=O)C2 :: inactive
COc1ccc(CCOc2cc3c(cc2OC)CCN(C(=O)NCc2cocn2)C3c2ccc(C)cc2C)cc1 (stereo not given) :: inactive
CCOC(=O)c1c(Nc2ccccc2)nn2c(-c3ccccc3)ccnc12 :: inactive
CCOc1ccc(NC2=C(Cl)C(=O)c3nc(C)ccc3C2=O)cc1 :: active

Enquiry: Field: outcome | Entry: "COc1ccc2[nH]cc(/C=N/Nc3nc4ccccc4s3)c2c1"
Return: inactive

Enquiry: Field: outcome | Entry: COc1cc2nc(Cl)nc(Nc3cccc(C4=Nc5c(N)nc(N)nc5NC(c5ccc(Br)cc5)C4)c3)c2cc1OC (stereo not given)
Return: inactive

Enquiry: Field: outcome | Entry: "Nc1ncc(-c2ccc3ncnc(Nc4cccc(Cl)c4F)c3c2)cn1"
Return: inactive

Enquiry: Field: outcome | Entry: "O=S(=O)(NCCCNc1nccc(-c2[nH]c(-c3ccccc3)nc2-c2ccc(Cl)c(O)c2)n1)c1ccc(Br)cc1"
Return: inactive
